Test system: Botrytis cinerea
Assay: In vivo preventive test on Botrytis cinerea (beans)
Settings: 500 ppm of active ingredient, lesion size 2 days after inoculation
quantityKind: Efficacy

// query Efficacy value for entry Cn1cc(C(=O)N(C2CC2)C2CCCCC2Cc2ccccc2)c(C(F)F)n1 (centres unmarked) [16 from WO-2010/094666, reference compound]
29%

====

System: Puccinia triticina
Experiment: In vivo preventive test on Puccinia triticina (wheat)
Details: Table K, 500 ppm of active ingredient, evaluated 8 days after inoculation
quantityKind: Efficacy
Please state the number and follow it with the unit.

// solved cases for Efficacy follow
- compound: "CC(C)CC(C)C1CCCCC1NC(=O)c1c(C(F)F)nn(C)c1F (centres unmarked) [Example 339]"
  Efficacy: "100%"
- compound: "Cn1nc(C(F)F)c(C(=O)N(C2CC2)C2CCCCC2Oc2ccccc2)c1F (centres unmarked) [Example 244]"
  Efficacy: "100%"
- compound: "CC(CC(C)(C)C)C1CCCCC1NC(=O)c1c(C(F)F)nn(C)c1F (single isomer, unassigned) [Example 361]"
  Efficacy: "90%"

Give recorded Efficacy with Puccinia triticina for the following compound: Cc1cccc(C)c1OCC(C)N(C(=O)c1c(C(F)F)nn(C)c1F)C1CC1 (centres unmarked) [Example 155]
90%

What do you have for CC(C)CC(C)C1CCCC1NC(=O)c1c(C(F)F)nn(C)c1Cl (mixture of isomers) [Example 311] ?
100%

What do you have for Cn1nc(C(F)F)c(C(=O)N(C2CC2)C2CCCCC2C2CCCCC2)c1F (centres unmarked) [Example 372] ?
100%

What do you have for Cn1nc(C(F)F)c(C(=O)NC2CCCCC2CCC(C)(C)C)c1F (single isomer, unassigned) [Example 357] ?
100%

What do you have for Cc1cccc(C)c1CCC(C)NC(=O)c1c(C(F)F)nn(C)c1Cl (centres unmarked) [Example 153] ?
95%

What do you have for Cn1nc(C(F)F)c(C(=O)N(CC2CCCCC2c2ccccc2)C2CC2)c1F (centres unmarked) [Example 240] ?
95%

What do you have for CC(CC(C)(C)C)C1CCCCC1NC(=O)c1c(C(F)F)nn(C)c1Cl (centres unmarked) [Example 359] ?
100%

What do you have for Cn1nc(C(F)F)c(C(=O)NC2CCCCC2CCC(C)(C)C)c1F (single isomer, unassigned) [Example 358] ?
100%

What do you have for Cn1nc(C(F)F)c(C(=O)NC2CCCC2CCC(C)(C)C)c1Cl (centres unmarked) [Example 320] ?
70%

What do you have for CC(C)CCC1CCCCC1NC(=O)c1c(C(F)F)nn(C)c1F (centres unmarked) [Example 333] ?
90%
